// provenance: the NIST ThermoML archive (doi:10.1021/acs.jced.8b00080)

Assay: activity coefficient (dimensionless); of the first substance listed, at infinite dilution; xn = mol fraction of the nth substance listed
Conditions: 353 K; 101.33 kPa; Liquid; Chromatography; x1 = 0
Endpoint Label: activity coefficient

Compound	Endpoint Label	Measured Value
CCc1ccccc1 [ethylbenzene] + C[n+]1ccn(CCO)c1.O=S(=O)([O-])C(F)(F)C(F)(F)C(F)(F)C(F)(F)F	activity coefficient	7.09
CCCCC [pentane] + C[n+]1ccn(CCO)c1.O=S(=O)([O-])C(F)(F)C(F)(F)C(F)(F)C(F)(F)F	activity coefficient	2.75
CC#N [acetonitrile] + C[n+]1ccn(CCO)c1.O=S(=O)([O-])C(F)(F)C(F)(F)C(F)(F)C(F)(F)F	activity coefficient	0.84
ClC(Cl)Cl [trichloromethane] + C[n+]1ccn(CCO)c1.O=S(=O)([O-])C(F)(F)C(F)(F)C(F)(F)C(F)(F)F	activity coefficient	1.84
